B1: tRNA (parent)
chain: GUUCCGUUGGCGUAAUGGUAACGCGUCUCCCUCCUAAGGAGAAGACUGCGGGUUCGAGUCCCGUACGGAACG

Variants of: B1
TEST DESCRIPTION: yeast fitness relative to wild type (ratio to wild type); higher = fitter; tRNA-Arg(CCU), competitive growth, 37 C, YPD
Variants at the floor of the assay were thinned out.
MEASURED PROPERTY: yeast fitness
Enter a number only.

>  <MUTATION NAME>
G25A A36C

>  <yeast fitness>
0.52

$$$$
>  <MUTATION NAME>
A37U C66A

>  <yeast fitness>
0.528

$$$$
>  <MUTATION NAME>
C22U A40C A70U

>  <yeast fitness>
0.545

$$$$
>  <MUTATION NAME>
G17A U19C C66U

>  <yeast fitness>
0.665

$$$$
>  <MUTATION NAME>
G9C C62G

>  <yeast fitness>
0.608

$$$$

QUERY: Quick one: yeast fitness of U7G C11G C34U G41A ?
RESULT: 0.525

QUERY: Quick one: yeast fitness of A37C A45C ?
RESULT: 0.758

QUERY: Quick one: yeast fitness of A36U A42U ?
RESULT: 0.71

QUERY: Quick one: yeast fitness of C5A C46A ?
RESULT: 0.97

QUERY: Quick one: yeast fitness of U8C C61A ?
RESULT: 0.763
